Target: C2 domain of PKCα (Homo sapiens, UniProt P17252)
Test: SPR equilibrium binding of PKCα-C2 to lipid vesicles containing PA derivatives
Conditions: read-out: Kd (dissociation constant for binding of PKCα-C2 to vesicles containing PA derivative), POPC:POPE:PA (40:40:20) vesicles, 20 mol% PA, L1 chip, 25°C, 25 mM Tris HCl pH 7.4, 150 mM NaCl, 1 mM CaCl2, 1 mM DTT
value_kind: pKd
# reply with the number alone; pKd is -log10 of concentration in mol/L

Input: Annotate the molecule CCCCCCCC/C=C\CCCCCCCC(=O)O[C@H](COC(=O)CCCCCCCCCCCCCCC)COP(=O)(O)O with its measured pKd.
Output: 6.36
